Where do the numbers come from? From patent US12730111B2.

Target: recombinant PRMT1 (Homo sapiens, UniProt Q99873)
Sequence (Q99873 whole entry): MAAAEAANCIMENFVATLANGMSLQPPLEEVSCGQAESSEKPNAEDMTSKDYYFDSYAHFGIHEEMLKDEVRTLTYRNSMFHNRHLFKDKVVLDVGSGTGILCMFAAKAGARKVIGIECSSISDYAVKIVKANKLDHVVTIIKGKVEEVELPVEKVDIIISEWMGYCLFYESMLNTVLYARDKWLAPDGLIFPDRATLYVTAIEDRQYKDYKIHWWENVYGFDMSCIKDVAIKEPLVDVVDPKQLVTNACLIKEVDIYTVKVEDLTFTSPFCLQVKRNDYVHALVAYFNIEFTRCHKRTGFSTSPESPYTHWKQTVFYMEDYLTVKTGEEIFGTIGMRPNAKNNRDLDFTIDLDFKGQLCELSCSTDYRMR
Assay Notes: In vitro PRMT1 activity assay (histone H4 methylation, immunoblot)
Condition Label: three-point curve fit (5, 10, 100 μM); an estimation; read-out: IC50 (PRMT1, histone H4 as substrate)
pIC50: −log10 of the molar value.
Assay Metric: pIC50

> print(dat)
                                   compound  assay.metric  quantitative.result
1  Cc1ccc(S(=O)(=O)/C=C/C#N)cc1 [Bay 11-7082]         pIC50                 4.97
2  C=CS(=O)(=O)Oc1ccccc1 [PVSN, phenyl vinyl sulfonate]         pIC50                 4.98
3  C=CS(=O)(=O)c1ccccc1 [PVS, Phenyl vinyl sulfone]         pIC50                 4.63
